These data points were gathered from PubChem BioAssay (NCI).

- Test system: A549 NSCLC
- test description: NCI tumour cell line growth inhibition, 48 h
observable: TGI (µM)
Only the number, expressed in µM, is required.

INSERT INTO measurements (smiles_str, observable, numeric_result) VALUES
  ('C[n+]1c2ccccc2c(CNCC(=O)O)c2ccccc21', 'TGI', 13.1);

Specify reported TGI for the compound shown: CCCCCCCCCCNCCSS(=O)(=O)O
5.27

Specify reported TGI for the compound shown: c1ccc(-c2c(-c3cccs3)[nH]c(-c3cccs3)c2-c2ccccn2)nc1
72.8

* * *

- System: MOLT-4 leukemia
- test description: NCI tumour cell line growth inhibition, 48 h; in the data active = GI50 below about 0.43 µM; inactive = the rest
// classify into active, inactive

Example results:
INSERT INTO results (compound, label_class) VALUES
  ('C/C=C/C(=O)[O-].C/C=C/C(=O)[O-].N.N.N.N.[Co+3].[O-][Cl+3]([O-])([O-])[O-]', 'inactive'),
  ('CCCCCCCCCCCCN=C(N)c1ccc(N2CCN(c3ccc(C(N)=NCCCCCCCCCCCC)cc3)CC2)cc1', 'inactive'),
  ('CCOc1ccc(C(C[N+](=O)[O-])Sc2ccccc2N)cc1 (stereo not drawn)', 'inactive'),
  ('O=C1NC2(CCCCC2)C(=O)N1CCN(CCCl)CCCl', 'inactive');

Name the outcome recorded for C#C[C@@]1(O)[C@@H](CO)O[C@@H](n2cc(C(F)(F)F)c3c(N)ncnc32)[C@@H]1O in the assay.
active

Name the outcome recorded for Fc1ccc(-c2nn3ccccc3c2-c2ccncc2)cc1 in the assay.
inactive

Name the outcome recorded for Cn1c(=O)c(Oc2ccc(F)cc2F)cc2cnc(N[C@@H]3CCOC3)nc21 in the assay.
inactive

Name the outcome recorded for COc1ccc2c(O)c(/C=C3\N=Nc4ncccc43)oc2c1C[C@@H]1CCNC[C@H]1F in the assay.
active
